ASSAYED_TARGET: Pregnane X receptor (Homo sapiens)
Construct: host or cells: U-2 OS
Sequence (O75469 whole entry): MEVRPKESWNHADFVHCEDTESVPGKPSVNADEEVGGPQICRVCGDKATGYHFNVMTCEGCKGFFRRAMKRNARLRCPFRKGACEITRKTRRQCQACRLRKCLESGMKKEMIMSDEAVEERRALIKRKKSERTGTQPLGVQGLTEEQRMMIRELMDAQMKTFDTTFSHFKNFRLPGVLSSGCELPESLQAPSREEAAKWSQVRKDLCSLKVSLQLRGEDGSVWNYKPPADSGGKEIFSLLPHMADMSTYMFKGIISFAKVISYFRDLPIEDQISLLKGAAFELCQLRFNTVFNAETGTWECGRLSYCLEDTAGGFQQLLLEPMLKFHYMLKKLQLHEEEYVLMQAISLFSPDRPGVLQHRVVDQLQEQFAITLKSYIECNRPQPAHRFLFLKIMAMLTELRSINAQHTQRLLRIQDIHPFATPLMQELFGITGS
EXPERIMENT_DESCRIPTION: PXR CALUX
Type: cell-based
EXPERIMENTAL_CONTEXT: 24 h exposure, lowest effect level PC10, means from 3 assay runs
MEASUREMENT_LABEL: PoD PXR - ago

1) CNC(=O)Oc1cccc2ccccc12 [Carbaryl]	4.0 -log(M)
2) CC(C)(C)C(O)(CCc1ccc(Cl)cc1)Cn1cncn1 (stereo not drawn) [Tebuconazole]	5.8 -log(M)
3) CO[C@H]1/C=C/O[C@@]2(C)Oc3c(C)c(O)c4c(O)c(c(/C=N/N5CCN(C)CC5)c(O)c4c3C2=O)NC(=O)/C(C)=C\C=C\[C@H](C)[C@H](O)[C@@H](C)[C@@H](O)[C@@H](C)[C@H](OC(C)=O)[C@@H]1C [Rifampicin]	7.1 -log(M)
4) CCCC(CCC)C(=O)O [Valproic acid]	4.0 -log(M)
5) Clc1cc(Cl)c(-c2cc(Cl)c(Cl)c(Cl)c2Cl)cc1Cl [PCB180, polychlorinated biphenyl 180]	5.5 -log(M)
6) O=P(Oc1ccccc1)(Oc1ccccc1)Oc1ccccc1 [Triphenyl phosphate]	6.1 -log(M)
